Where these numbers come from: PubChem BioAssay AID1259407

System: CCRIS mutagenicity, Ames/micronucleus/aberration tests
Assay: CCRIS mutagenicity studies
Settings: Test System: AMES SALMONELLA TYPHIMURIUM; Strain/Indicator: TA100; Metabolic Activation: NONE; Method: PREINCUBATION
The source made the active and inactive calls. How the calls were made is not given here.
Choose the fitting class; nothing outside label 1 for active, label 0 for inactive is accepted.

Please review the entries below; each comes with its answer.
Problem: Record lookup: outcome of this test for `Nc1cc(Cl)ccc1[N+](=O)[O-]` ?
Solution: label 0

Problem: Record lookup: outcome of this test for `CCCC(=O)Cl` ?
Solution: label 0

Problem: Record lookup: outcome of this test for CCCCC1C(=O)N(c2ccccc2)N(c2ccc(O)cc2)C1=O (stereo unspecified) ?
Solution: label 0

Problem: Record lookup: outcome of this test for `OC[C@@H](O)CCl` ?
Solution: label 1

Problem: Record lookup: outcome of this test for `c1ccc2sc(SSc3nc4ccccc4s3)nc2c1` ?
Solution: label 0

Next:
Problem: Record lookup: outcome of this test for `CCNCCN` ?
Solution: label 0

---

Tested on: CCRIS mutagenicity, Ames/micronucleus/aberration tests
Test: CCRIS mutagenicity studies
Details: Test System: AMES SALMONELLA TYPHIMURIUM; Strain/Indicator: TA98; Metabolic Activation: HAMSTER, LIVER, S-9, AROCLOR 1254 (10%); Method: PREINCUBATION
Active and inactive are the calls of the source. How the calls were made is not given here.
Choose the fitting class; nothing outside active, inactive is accepted.

Please review the entries below; each comes with its answer.
Problem: Record lookup: outcome of this test for `CC(=O)Nc1ccc(N)cc1` ?
Solution: active

Problem: Record lookup: outcome of this test for `O=C1NC(=O)c2cc([N+](=O)[O-])ccc21` ?
Solution: active

Problem: Record lookup: outcome of this test for `O=Cc1ccco1` ?
Solution: inactive

Problem: Record lookup: outcome of this test for `CC(C)Nc1ccc(Nc2ccccc2)cc1` ?
Solution: inactive

Problem: Record lookup: outcome of this test for `Nc1ccc([N+](=O)[O-])cc1O` ?
Solution: active

Problem: Record lookup: outcome of this test for `Nc1ccc(Cl)cc1Cl` ?
Solution: inactive

Next:
Problem: Record lookup: outcome of this test for `O=Cc1c(Cl)cccc1Cl` ?
Solution: inactive

Problem: Record lookup: outcome of this test for `Cc1ccc(N)c(C)c1` ?
Solution: active

Problem: Record lookup: outcome of this test for `ClC(Cl)(Cl)Cl` ?
Solution: inactive

Problem: Record lookup: outcome of this test for `COc1c(Cl)c(Cl)c(Cl)c(Cl)c1Cl` ?
Solution: inactive

Problem: Record lookup: outcome of this test for `COc1cc(-c2ccc(N/N=C3/C(=O)c4c(N)cc(S(=O)(=O)O)cc4C=C3S(=O)(=O)O)c(OC)c2)ccc1N/N=C1/C(=O)c2c(N)cc(S(=O)(=O)O)cc2C=C1S(=O)(=O)O` ?
Solution: inactive

Problem: Record lookup: outcome of this test for `c1ccc(OP(Oc2ccccc2)Oc2ccccc2)cc1` ?
Solution: inactive

Problem: Record lookup: outcome of this test for `C=CC(=O)OCCN(C)C` ?
Solution: inactive

Problem: Record lookup: outcome of this test for CCC(Cl)C(Cl)C(Cl)CC(Cl)C(Cl)C(C)Cl (stereo not drawn) ?
Solution: inactive

Problem: Record lookup: outcome of this test for `Nc1cc([N+](=O)[O-])ccc1O` ?
Solution: active

Problem: Record lookup: outcome of this test for `Cc1cccc(Br)c1` ?
Solution: inactive

Problem: Record lookup: outcome of this test for `O=c1ccc(=O)[nH][nH]1` ?
Solution: inactive

Problem: Record lookup: outcome of this test for `O=C(CCl)c1ccccc1` ?
Solution: inactive

---

System: CCRIS mutagenicity, Ames/micronucleus/aberration tests
Assay: CCRIS mutagenicity studies
Conditions: Test System: AMES SALMONELLA TYPHIMURIUM; Strain/Indicator: TA100; Metabolic Activation: RAT, LIVER, S-9, PCB; Method: PREINCUBATION
The source made the active and inactive calls. How the calls were made is not given here.
Choose the fitting class; nothing outside Y (active), N (inactive) is accepted.

Please review the entries below; each comes with its answer.
Problem: Record lookup: outcome of this test for `O=C1c2ccccc2C(=O)c2c1cc(O[C@@H]1O[C@H](CO[C@@H]3OC[C@@H](O)[C@H](O)[C@H]3O)[C@@H](O)[C@H](O)[C@H]1O)c(CO)c2O` ?
Solution: N

Problem: Record lookup: outcome of this test for CC(CCN(C)C)N(C)C (stereo unspecified) ?
Solution: N

Problem: Record lookup: outcome of this test for `CC(C)[C@@](O)(C(=O)OC[C@@H]1CCN2CCC[C@H]12)[C@@H](C)O` ?
Solution: N

Problem: Record lookup: outcome of this test for `OC[C@@H](O)CCl` ?
Solution: Y

Problem: Record lookup: outcome of this test for `Cc1ccc2c(c1)C(=O)c1cc(O)ccc1C2=O` ?
Solution: Y

Moving on to another compound below.
Problem: Record lookup: outcome of this test for `N#CCCC(=O)CCc1ccc(C(=O)O)cc1` ?
Solution: N

---

Test system: CCRIS mutagenicity, Ames/micronucleus/aberration tests
Assay: CCRIS mutagenicity studies
Settings: Test System: AMES SALMONELLA TYPHIMURIUM; Strain/Indicator: TA100; Metabolic Activation: RAT LIVER S-9, AROCLOR 1254; Method: STANDARD PLATE
Text: The CCRIS database contains chemical records with carcinogenicity, mutagenicity, tumor promotion, and tumor inhibition test results. It was developed by the National Cancer Institute (NCI). Data are derived from studies cited in primary journals, current awareness tools, NCI reports, and other sources. Test results have been reviewed by experts in carcinogenesis and mutagenesis. CCRIS provides historical information from the years 1985 - 2011. It is no longer updated. […]
Active and inactive are the calls of the source. How the calls were made is not given here.
MEASUREMENT_NAME: mutagenic call

Problem: Item: `CC(=O)c1cc(C(C)(C)C)cc2c1CCC2(C)C` Test system: CCRIS mutagenicity, Ames/micronucleus/aberration tests Read-out: mutagenic call Value: ?
Solution: inactive; negative

Problem: Item: O=C(O)C1=NN(c2ccc(S(=O)(=O)O)cc2)C(=O)C1N=Nc1ccc(S(=O)(=O)O)cc1 (stereo not drawn) Test system: CCRIS mutagenicity, Ames/micronucleus/aberration tests Read-out: mutagenic call Value: ?
Solution: inactive; negative

Problem: Item: `c1ccc2c(c1)oc1ccccc12` Test system: CCRIS mutagenicity, Ames/micronucleus/aberration tests Read-out: mutagenic call Value: ?
Solution: inactive; negative

Problem: Item: `C[Si](Cl)(Cl)Cl` Test system: CCRIS mutagenicity, Ames/micronucleus/aberration tests Read-out: mutagenic call Value: ?
Solution: inactive; negative

Problem: Item: `CC12CCC(CC1)C(C)(C)O2` Test system: CCRIS mutagenicity, Ames/micronucleus/aberration tests Read-out: mutagenic call Value: ?
Solution: inactive; negative

Problem: Item: `Cc1ccc(C)c2c1c1ccccc1n2C` Test system: CCRIS mutagenicity, Ames/micronucleus/aberration tests Read-out: mutagenic call Value: ?
Solution: active; positive

Problem: Item: `Cn1c2ccccc2c2cc([N+](=O)[O-])ccc21` Test system: CCRIS mutagenicity, Ames/micronucleus/aberration tests Read-out: mutagenic call Value: ?
Solution: active; positive

Next:
Problem: Item: `CC1=C2C(=CO[C@H](C)[C@H]2C)C(=O)C(C(=O)O)=C1O` Test system: CCRIS mutagenicity, Ames/micronucleus/aberration tests Read-out: mutagenic call Value: ?
Solution: inactive; negative

---

System: CCRIS mutagenicity, Ames/micronucleus/aberration tests
Experiment: CCRIS mutagenicity studies
Details: Test System: AMES SALMONELLA TYPHIMURIUM; Strain/Indicator: TA100; Metabolic Activation: NONE; Method: SPOT TEST
The source made the active and inactive calls. The rule behind the calls is not given here.
Choose the fitting class; nothing outside yes (1) (active), no (0) (inactive) is accepted.

Problem: Record lookup: outcome of this test for `C=C(CN(C)C)C(=O)c1ccccc1` ?
Solution: no (0)

Problem: Record lookup: outcome of this test for BrCC(Br)c1ccccc1 (centres undefined) ?
Solution: yes (1)

Problem: Record lookup: outcome of this test for C=C(OC)[C@H](CSCC(Br)c1ccccc1)NC(=O)CC (some centres undefined) ?
Solution: no (0)

Problem: Record lookup: outcome of this test for `O=[N+]([O-])c1ccc(-[n+]2nc(-c3ccccc3)nn2-c2ccc(I)cc2)cc1` ?
Solution: no (0)

---

Tested on: CCRIS mutagenicity, Ames/micronucleus/aberration tests
Assay: CCRIS mutagenicity studies
Settings: Test System: AMES SALMONELLA TYPHIMURIUM; Strain/Indicator: TA1535; Metabolic Activation: RAT, LIVER, S-9, AROCLOR 1254 (10%); Method: PREINCUBATION
Source text: The CCRIS database contains chemical records with carcinogenicity, mutagenicity, tumor promotion, and tumor inhibition test results. It was developed by the National Cancer Institute (NCI). Data are derived from studies cited in primary journals, current awareness tools, NCI reports, and other sources. Test results have been reviewed by experts in carcinogenesis and mutagenesis. CCRIS provides historical information from the years 1985 - 2011. It is no longer updated. […]
Active and inactive are the calls of the source. How the calls were made is not given here.
Choose the fitting class; nothing outside true for active, false for inactive is accepted.

Please review the entries below; each comes with its answer.
Problem: Record lookup: outcome of this test for `C[O+](C)C.[Cl][Sb-]([Cl])([Cl])([Cl])([Cl])[Cl]` ?
Solution: false

Problem: Record lookup: outcome of this test for `Nc1nc(N)c2nc(-c3ccccc3)c(N)nc2n1` ?
Solution: false

Problem: Record lookup: outcome of this test for `CCCCOC(=O)c1ccccc1C(=O)OCCCC` ?
Solution: false

Problem: Record lookup: outcome of this test for `CC(C)CC(=O)CC(C)C` ?
Solution: false

Problem: Record lookup: outcome of this test for `O=C(NO)c1ccccc1` ?
Solution: true

Problem: Record lookup: outcome of this test for `O=C(CCl)c1ccccc1` ?
Solution: false

Problem: Record lookup: outcome of this test for `Nc1ccc([N+](=O)[O-])cc1O` ?
Solution: false

Problem: Record lookup: outcome of this test for `O=NN(CCO)CCO` ?
Solution: true

Problem: Record lookup: outcome of this test for CCCCC(CC)COP(OCC(CC)CCCC)OCC(CC)CCCC (stereo not drawn) ?
Solution: false

Problem: Record lookup: outcome of this test for `Oc1cccc(O)c1` ?
Solution: false

Next:
Problem: Record lookup: outcome of this test for `O=S1(=O)CC=CC1` ?
Solution: false

Problem: Record lookup: outcome of this test for `CC(=O)Nc1ccc(N)cc1` ?
Solution: false

Problem: Record lookup: outcome of this test for `O=Cc1ccco1` ?
Solution: false

Problem: Record lookup: outcome of this test for `COc1c(Cl)c(Cl)c(Cl)c(Cl)c1Cl` ?
Solution: false

Problem: Record lookup: outcome of this test for `c1ccc(OP(Oc2ccccc2)Oc2ccccc2)cc1` ?
Solution: false

Problem: Record lookup: outcome of this test for `COC(C)(C)CC(C)=O` ?
Solution: false

Problem: Record lookup: outcome of this test for `O=Cc1c(Cl)cccc1Cl` ?
Solution: false

Problem: Record lookup: outcome of this test for `CCc1c(Br)c(Br)c(Br)c(Br)c1Br` ?
Solution: false

Problem: Record lookup: outcome of this test for `CCCCOC(=O)c1ccccc1C(=O)OC1CCCCC1` ?
Solution: false

Problem: Record lookup: outcome of this test for `C#C[C@]1(O)CC[C@H]2[C@@H]3CCc4cc(O)ccc4[C@H]3CC[C@@]21C` ?
Solution: false

Problem: Record lookup: outcome of this test for `Nc1ccc(C(=O)O)cc1` ?
Solution: false

Problem: Record lookup: outcome of this test for `OCC(CBr)(CBr)CBr` ?
Solution: false

Problem: Record lookup: outcome of this test for C=CC1CC=CCC1 (stereo not drawn) ?
Solution: false
